Please respond with reported kinact/KI for every item in the list.
Biological target: Human FAAH (Homo sapiens)
Construct: made in house
Sequence (O00519 whole entry): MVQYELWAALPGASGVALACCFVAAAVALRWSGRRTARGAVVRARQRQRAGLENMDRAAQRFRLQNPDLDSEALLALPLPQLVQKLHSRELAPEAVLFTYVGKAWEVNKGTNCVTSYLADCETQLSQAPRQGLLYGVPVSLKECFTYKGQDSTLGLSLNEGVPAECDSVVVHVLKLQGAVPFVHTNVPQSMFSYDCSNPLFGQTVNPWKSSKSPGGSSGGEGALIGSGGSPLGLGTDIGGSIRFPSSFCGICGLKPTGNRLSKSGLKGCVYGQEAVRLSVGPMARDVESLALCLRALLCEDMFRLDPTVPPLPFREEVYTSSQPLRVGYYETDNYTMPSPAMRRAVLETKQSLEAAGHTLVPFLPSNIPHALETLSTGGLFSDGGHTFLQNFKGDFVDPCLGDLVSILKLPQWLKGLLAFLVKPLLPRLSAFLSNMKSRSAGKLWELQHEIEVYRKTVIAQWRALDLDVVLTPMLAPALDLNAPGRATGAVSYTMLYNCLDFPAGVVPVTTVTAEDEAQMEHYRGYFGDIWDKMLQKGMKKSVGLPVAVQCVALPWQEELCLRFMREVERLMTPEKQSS
Assay: FAAH assay (glutamate dehydrogenase-coupled, oleamide substrate, absorbance at 340 nm)
Format: biochemical
Details: irreversible inhibition, 1-4 nM FAAH, pH 7.4, 30° C., 90 min, read-out: hFAAH kinact/Ki
Counter-ions that a name gives are not always drawn.
One number for each entry, in M⁻¹ s⁻¹.

Observe how each entry below is paired with its result.
[[record]]
molecule = "O=C(Nc1cccnc1)N1CCC(=Cc2cccc(Oc3ccc(C(F)(F)F)cn3)c2)CC1"
assay_metric = "kinact/KI"
observed_value = 13300

[[record]]
molecule = "Cc1noc(NC(=O)N2CCC(=Cc3cccc(Oc4ccc(C(F)(F)F)cn4)c3)CC2)c1C"
assay_metric = "kinact/KI"
observed_value = 5050

[[record]]
molecule = "Cc1cc(NC(=O)N2CCC(=Cc3cccc(Oc4ccc(C(F)(F)F)cn4)c3)CC2)cnc1C"
assay_metric = "kinact/KI"
observed_value = 1110

[[record]]
molecule = "O=C(Nc1cccnn1)N1CCC(=Cc2cccc(Oc3ncc4cccnc4n3)c2)CC1"
assay_metric = "kinact/KI"
observed_value = 1390


Batch: kinact/KI for all items listed.
1. N#Cc1ccc(NC(=O)N2CCC(=Cc3cccc(Oc4ccc(C(F)(F)F)cn4)c3)CC2)cn1 [Example 11, hydrochloride]
2. O=C(Nc1cccnc1)N1CCC(=Cc2cccc(Oc3ccc(F)cc3)c2)CC1
3. Cc1ccc(Oc2cccc(C=C3CCN(C(=O)Nc4cccnn4)CC3)c2)nc1

1: 4040; 2: 2380; 3: 12800

Batch: kinact/KI for all items listed.
1. Cc1ccc(NC(=O)N2CCC(=Cc3cccc(Oc4ccc(C(F)(F)F)cn4)c3)CC2)cn1
2. Cc1cccc(Oc2cccc(C=C3CCN(C(=O)Nc4cccnn4)CC3)c2)n1
3. O=C(Nc1cn[nH]c1)N1CCC(=Cc2cccc(Oc3ccc(C(F)(F)F)cn3)c2)CC1
4. CC(=C1CCN(C(=O)Nc2cccnc2)CC1)c1cccc(Oc2ccc(C(F)(F)F)cn2)c1

[7800, 687, 4300, 5980]

Batch: kinact/KI for all items listed.
1. Cc1ccc(NC(=O)N2CCC(=C(F)c3cccc(Oc4ccc(C(F)(F)F)cn4)c3)CC2)cn1
2. Cc1cccnc1Oc1cccc(C=C2CCN(C(=O)Nc3cccnc3)CC2)c1
3. O=C(Nc1cnoc1)N1CCC(=Cc2cccc(Oc3ccc(C(F)(F)F)cn3)c2)CC1
4. Cc1ccnc(Oc2cccc(C=C3CCN(C(=O)Nc4cccnn4)CC3)c2)c1
5. O=C(Nc1cccnn1)N1CCC(=Cc2cccc(Oc3cnccn3)c2)CC1

1. 4590
2. 834
3. 3620
4. 963
5. 203
